test system: MRSA NCTC 12493; assay type: cell-based, Methicillin-resistant Staphylococcus aureus
Where a SMILES comes first, the peptide text is derived from it.
Would you kindly list MIC for each of these compounds?
Answer format: numeric, µM implied, no suffix.

Incoming: # lookup: MIC of CC[C@H](C)[C@H](NC(=O)[C@H](C)NC(=O)CNC(=O)CNC(=O)[C@@H](NC(=O)[C@H](CC(C)C)NC(=O)[C@H](C)NC(=O)[C@H](CC(C)C)NC(=O)[C@H](C)NC(=O)[C@H](CC(C)C)NC(=O)[C@@H](N)Cc1ccccc1)[C@@H](C)CC)C(=O)N[C@@H](C)C(=O)N[C@@H](CCCCN)C(=O)N[C@@H](CC(C)C)C(=O)N[C@@H](CCCCN)C(N)=O [QUB-1498] (H-FLALALIGGAIAKLK-NH2)
Outgoing: 128

Incoming: Entry CC[C@H](C)[C@H](NC(=O)[C@H](C)NC(=O)[C@H](CCCCN)NC(=O)CNC(=O)[C@@H](NC(=O)[C@H](CC(C)C)NC(=O)[C@H](C)NC(=O)[C@H](CC(C)C)NC(=O)[C@H](C)NC(=O)[C@H](CC(C)C)NC(=O)[C@@H](N)Cc1ccccc1)[C@@H](C)CC)C(=O)N[C@@H](C)C(=O)N[C@@H](CCCCN)C(=O)N[C@@H](CC(C)C)C(=O)N[C@@H](CCCCN)C(N)=O [QUB-1570] (H-FLALALIGKAIAKLK-NH2) : reported MIC = ?
Outgoing: 4

Incoming: Return reported MIC; argument: CC[C@H](C)[C@H](NC(=O)[C@H](C)NC(=O)[C@H](CCC(=O)O)NC(=O)[C@H](CCC(N)=O)NC(=O)[C@@H](NC(=O)[C@H](CC(C)C)NC(=O)[C@H](CCCCN)NC(=O)CNC(=O)[C@H](C)NC(=O)[C@H](CC(C)C)NC(=O)[C@@H](N)Cc1ccccc1)[C@@H](C)CC)C(=O)N[C@@H](C)C(=O)N[C@@H](CCCCN)C(=O)N[C@@H](CC(C)C)C(=O)N[C@@H](CCCCN)C(N)=O [QUB-1643] (H-FLAGKLIQEAIAKLK-NH2)
Outgoing: 64
